The following compounds are listed with their measured relative viability values.
# Tested on: NCI-H2405
# Protocol summary: relative viability (nuclei count vs DMSO), 5 days (fraction); higher = more cells survive
# Run parameters: first compound 5 µM
Please give only the number in your answer, with no unit.

O=C(O)CCCCC(CCSCc1ccccc1)SCc1ccccc1 (stereo unspecified) [CPI-613] + Cc1nc(NC(=O)N2CCC[C@H]2C(N)=O)sc1-c1ccnc(C(C)(C)C(F)(F)F)c1 [Alpelisib] (partner 2 µM): 0.882

Now for the compound whose relative viability we want.
Query: Specify the recorded relative viability for O=C(O)CCCCC(CCSCc1ccccc1)SCc1ccccc1 (stereo unspecified) [CPI-613] + CC(=O)Nc1cccc(-n2c(=O)n(C3CC3)c(=O)c3c(Nc4ccc(I)cc4F)n(C)c(=O)c(C)c32)c1 [Trametinib] (partner 0.02 µM) , system: NCI-H2405.
Result: 0.633
